Target: T1, MotA S80R, full length (bacteriophage T4, UniProt P22915 1-211, S80R)
T1 sequence (looked up): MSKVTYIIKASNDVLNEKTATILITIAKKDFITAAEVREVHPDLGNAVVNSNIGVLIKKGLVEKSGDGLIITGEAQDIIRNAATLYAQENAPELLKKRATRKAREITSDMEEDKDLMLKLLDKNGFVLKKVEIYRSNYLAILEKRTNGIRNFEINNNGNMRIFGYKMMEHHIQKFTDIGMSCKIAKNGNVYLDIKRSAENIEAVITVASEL
Test: fluorescence polarisation
Where no end group is shown, it is not given here. The star is where a group is joined. FITC = O=C1OC2(c3ccc(O)cc3Oc3cc(O)ccc32)c2ccc(NC(=S)*)cc21
EXPERIMENTAL ENDPOINT: Kd (µM)

binder="{FITC}-PSRSEVLRSFLDD (peptide, UniProt P00579 601-613, looked up) [fluorescein-tagged σ4-H5 peptide (σ^70 residues 601-613)]" unit_abbrev=µM reported=44.7
